# Tested on: RXF 393
# testProtocol: NCI tumour cell line growth inhibition, 48 h
Active and inactive are the calls of the source. Rule as the data show it: active = GI50 up to about 1.1 µM and inactive = higher.
readoutLabel: GI50

A selection of reference data follows.
compound="Nc1ncc(Cl)c(NCC2(CO)CC(CCc3ccccc3)C2)n1 (centres undefined)" readoutlabel=GI50 observed="> 100 µM (inactive)"
compound="CC(=O)OCC1OC(OCCCOP(=O)(OCCC#N)OCC2OC(n3cnc4c(N)ncnc43)C(OC(=O)c3ccccc3)C2OC(=O)c2ccccc2)C(OC(C)=O)C(OC(C)=O)C1OC(C)=O (centres undefined)" readoutlabel=GI50 observed="> 100 µM (inactive)"
compound="CCCCCCCCCCCCC1NC(=N)NC2(CCCO2)C1C(=O)OC (centres undefined)" readoutlabel=GI50 observed="3 µM (inactive)"

Just so you know, measured GI50 for COc1ccc2[nH]c3c(c2c1)CC(=S)N1CCCC(CC3=O)C1 (centres undefined) came out at 20.7 µM (inactive)

Record O=C(CCCCCCCCCCc1ccccc1)C1=C(O)CC(O)CC1=O (centres undefined) , field GI50: > 100 µM (inactive)

Kindly note the recorded GI50 for CCN(CC)c1ccc(/C=C/C2=NN(c3cccc(S(=O)(=O)O)c3)C3(C2)SCC(=O)N3c2nc3ccccc3s2)cc1 (centres undefined) , which is > 100 µM (inactive)

Entry Cc1ncc([N+](=O)[O-])n1CCNCCCCn1ccnc1[N+](=O)[O-] ; GI50 = > 100 µM (inactive)

Lab note: NC(=O)N/N=C(\CC1OC(=O)c2ccccc21)c1ccc([N+](=O)[O-])cc1 (centres undefined) gave GI50 of 14.9 µM (inactive)

Where do the numbers come from? From ChEMBL document CHEMBL1201862.
